- target-system: human DPP1 enzyme (Homo sapiens, UniProt P53634)
- protocol: Human DPP1 Enzyme IC50 Assay
- Assay type: biochemical
- Parameters: was first proteolytically processed into its mature form using recombinant human cathepsin L; purchased R&D Systems
- condition-context: activated recombinant human DPP1, 400 μM H-Gly-Arg-AMC, 10 minutes pre-incubation at 37° C., pH 6.0; average of n runs; read-out: Avg. IC50 (Human DPP1 enzyme IC50 value ranges)
- Sequence (P53634 25-134 limits assumed): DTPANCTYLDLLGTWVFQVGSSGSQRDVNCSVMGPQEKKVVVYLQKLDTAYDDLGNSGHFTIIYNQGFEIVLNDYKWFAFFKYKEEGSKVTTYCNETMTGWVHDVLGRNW
- Sequence (P53634 231-394 limits assumed): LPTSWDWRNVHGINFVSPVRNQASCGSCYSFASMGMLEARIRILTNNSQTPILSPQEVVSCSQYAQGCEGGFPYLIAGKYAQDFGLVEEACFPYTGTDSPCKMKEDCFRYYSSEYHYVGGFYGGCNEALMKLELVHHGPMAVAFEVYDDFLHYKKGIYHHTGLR
- Sequence (P53634 395-463 limits assumed): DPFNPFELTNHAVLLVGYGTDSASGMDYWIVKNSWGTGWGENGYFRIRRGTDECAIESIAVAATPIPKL
Documented IC50 across a set of molecules

Record excerpt, results attached:
CO[C@H]1CCO[C@H](C(=O)N[C@H](C#N)Cc2ccc(-c3ccc4c(n3)CCCN4)cc2F)CNC1 [Compound A49]; 5 to 15 nM
CCc1sc(-c2ccc(C[C@@H](C#N)NC(=O)[C@@H]3CNCCCO3)cc2)nc1-c1cnn(C)c1 [Compound D8]; > 15 nM
Cc1cn2cc(-c3ccc(C[C@@H](C#N)NC(=O)[C@@H]4CNCCCO4)cc3)cc2c(C)n1 [Compound A8]; > 15 nM
Cc1nc(-c2ccc(C[C@@H](C#N)NC(=O)[C@@H]3CNCCCO3)cc2)sc1C#N [Compound 10]; > 15 nM
CO[C@@H]1CCNC[C@@H](C(=O)NC(C#N)Cc2cnc(-c3ccc4c(F)nn(C)c4c3)s2)OC1 (mixture of isomers) [Compound A38]; 5 to 15 nM

Problem: Which IC50 reading was recorded for the molecule CCCCOCCn1c(=O)oc2ccc(-c3ccc(C[C@@H](C#N)NC(=O)[C@@H]4CNC(C)C(OC)CO4)c(F)c3)cc21 (some centres unmarked) [Compound E1] ?
Solution: < 5 nM

Problem: Any idea what IC50 was measured for N#C[C@H](Cc1ccc(C23CCC(C#N)(CC2)CC3)cc1)NC(=O)[C@@H]1CNCCCO1 [Compound 4] ?
Solution: > 15 nM

Problem: What measured IC50 goes with CO[C@H]1CCO[C@H](C(=O)N[C@H](C#N)Cc2ccc(-c3cc4c(C)nc(C)cn4c3)s2)CNC1 [Compound A44] ?
Solution: > 15 nM

###

- target-system: human DPP1 enzyme (Homo sapiens)
- protocol: Human DPP1 Enzyme Single-Point Percent Inhibition Testing (HL-60 lysate)
- Format: biochemical
- Set-up: A crude lysate of HL-60 cells (ATCC; Manassas, VA) was used as a source of human DPP1 enzyme; host or cells: HL-60 cells (crude lysate)
- condition-context: final compound concentration of 10 nM, 400 μM H-Gly-Arg-AMC, n = 1
- Protocol: Example 98. Human DPP1 Enzyme Single-Point Percent Inhibition Testing A crude lysate of HL-60 cells (ATCC; Manassas, VA) was used as a source of human DPP1 enzyme in the assay. […] Substrate cleavage was measured for 90 minutes at 37° C., with fluorescence at Excitation/Emission 350/450 nm measured every 5 minutes. […] Percent inhibition at 10 nM was calculated for each test article based on remaining DPP1 activity compared to enzyme activity in wells that received only vehicle control.
- Sequence (P53634 25-463): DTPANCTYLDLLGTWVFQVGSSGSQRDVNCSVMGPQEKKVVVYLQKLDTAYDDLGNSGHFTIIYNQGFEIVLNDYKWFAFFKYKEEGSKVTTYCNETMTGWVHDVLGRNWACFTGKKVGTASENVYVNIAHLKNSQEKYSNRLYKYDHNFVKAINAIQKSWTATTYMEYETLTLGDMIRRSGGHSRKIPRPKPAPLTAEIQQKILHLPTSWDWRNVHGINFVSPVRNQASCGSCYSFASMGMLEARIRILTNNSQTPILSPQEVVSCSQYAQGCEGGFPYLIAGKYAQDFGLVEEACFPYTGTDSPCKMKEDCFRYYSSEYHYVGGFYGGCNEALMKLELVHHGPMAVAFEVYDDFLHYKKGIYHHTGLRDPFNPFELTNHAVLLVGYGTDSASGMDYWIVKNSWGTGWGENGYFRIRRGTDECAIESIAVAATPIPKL
measured-parameter: inhibition at 0.01 µM

CO[C@H]1CCO[C@H](C(=O)N[C@H](C#N)Cc2ccc(-c3ccc(CN4CCN(C)CC4)cc3)cc2)CNC1; ≤ 40%
CO[C@@H]1CCNC[C@@H](C(=O)N[C@H](C#N)Cc2ccc(-c3ccc4c(c3)C3(CCCN(C)C3)C(=O)N4C)cc2)OC1 (stereo partly shown); ≥ 66.7%
CO[C@H]1CCO[C@H](C(=O)N[C@H](C#N)Cc2ccc(-c3ccc4cnn(C)c4c3)cc2F)CNC1; ≥ 66.7%
C[C@@H]1NC[C@@H](C(=O)N[C@H](C#N)Cc2ccc(-c3ccc4c(n3)CCCN4)cc2)OC[C@@H]1O; ≤ 40%
COC1CNC[C@@H](C(=O)NC(C#N)Cc2cc3c(cc2F)-c2cc4c(cc2CO3)oc(=O)n4C)OC1 (stereo partly shown); ≥ 66.7%
COC1CNC[C@@H](C(=O)N[C@H](C#N)Cc2ccc(-c3ccc4c(n3)CCCN4)cc2)OC1 (stereo partly shown); ≥ 66.7%

API: the following record is the query input.
Problem: Can you share its inhibition at 0.01 µM? I mean this compound: `N#Cc1ccc2c(c1)COc1cc(C[C@@H](C#N)NC(=O)[C@@H]3CNCCCO3)c(F)cc1-2`
Solution: 40 to 66.7%
